- Assay Procedure: Oral bioavailability in Wistar rat at 3 mg/kg
- Assay type: ADME, organism-based
- Conditions Used: in vivo
Readout: bioavailability (%)
Write the value in % as a bare number.

**Query** Answer with the recorded bioavailability of CCC(=O)c1c(-c2ccccc2)c2cc(Cl)ccc2c(=O)n1Cc1cc(C(=O)NC2CC2)n(C)n1 only.
**Result** 15

* * *

- Assay Procedure: AUC in Wistar rat at 3 mg/kg, po
- Format: ADME, organism-based
- Parameters: dose 3 mg/kg, route oral
- Conditions Used: plasma
Readout: AUC (ng·h/mL)
The figure you give is taken to be in ng·h/mL; do not add the unit.

**Query** Item CCC(=O)c1c(-c2ccccc2)c2cc(Cl)ccc2c(=O)n1Cc1cc(C(=O)NC2CC2)n(C)n1 : provide AUC
**Result** 340

* * *

- Assay Procedure: Cmax in Wistar rat at 3 mg/kg, po
- Type: ADME, organism-based
- Design: dose 3 mg/kg, route oral
- Conditions Used: in vivo
Readout: Cmax (ng/mL)
// return numeric value only (unit: ng/mL, not printed)

**Query** Using the record for CCC(=O)c1c(-c2ccccc2)c2cc(Cl)ccc2c(=O)n1Cc1cc(C(=O)NC2CC2)n(C)n1 , state its measured Cmax.
**Result** 47.1

* * *

Parameter: logD. Scope: all listed entries.
- Assay Procedure: Lipophilicity, log D at pH 7.4
- Type: physicochemical
- Conditions Used: buffer
Give a plain numeric answer without units written out.

[
  {
    "Record Smiles": "CCNC(=O)n1ccc(Cn2c(C(=O)CC)c(-c3ccccc3)c3cc(Cl)ccc3c2=O)n1",
    "Recorded Measurement": 4.51
  },
  {
    "Record Smiles": "CCNC(=O)n1cc(Cn2c(C(=O)CC)c(-c3ccccc3)c3cc(Cl)ccc3c2=O)cn1",
    "Recorded Measurement": 4.45
  },
  {
    "Record Smiles": "CCC(=O)c1c(-c2ccccc2)c2cc(Cl)ccc2c(=O)n1Cc1cc(C(=O)NC)n[nH]1",
    "Recorded Measurement": 3.5
  },
  {
    "Record Smiles": "CCC(=O)c1c(-c2ccccc2)c2cc(Cl)ccc2c(=O)n1Cc1cc(C(=O)NC2CC2)n(C)n1",
    "Recorded Measurement": 4.35
  },
  {
    "Record Smiles": "CCC(=O)c1c(-c2ccccc2)c2cc(Cl)ccc2c(=O)n1Cc1cc(C(=O)N(C)C)n(C)n1",
    "Recorded Measurement": 3.91
  }
]

**Query** Item CCC(=O)c1c(-c2ccccc2)c2cc(Cl)ccc2c(=O)n1Cc1cc(C(N)=O)n(C)n1 : provide logD
**Result** 3.77

**Query** Annotate the molecule CCC(=O)c1c(-c2ccccc2)c2cc(Cl)ccc2c(=O)n1Cc1cc(C(=O)NC)n(C)n1 with its measured logD.
**Result** 3.97

**Query** For CCC(=O)c1c(-c2ccccc2)c2cc(Cl)ccc2c(=O)n1Cc1cc(C(N)=O)n(CC)n1 , write its logD.
**Result** 4.08

**Query** Provide measured logD value, entry: CCC(=O)c1c(-c2ccccc2)c2cc(Cl)ccc2c(=O)n1Cc1cc(S(C)(=O)=O)n(CC(C)=O)n1
**Result** 3.79

**Query** // Input: CCC(=O)c1c(-c2ccccc2)c2cc(Cl)ccc2c(=O)n1Cc1cc(S(C)(=O)=O)n(CC(N)=O)n1 . Output its logD only.
**Result** 3.42

**Query** Please report logD for the following molecule: CCC(=O)c1c(-c2ccccc2)c2cc(Cl)ccc2c(=O)n1Cc1cc(S(C)(=O)=O)n(CC(F)F)n1
**Result** 4.19

**Query** Give the reported value of logD for this record: CCC(=O)c1c(-c2ccccc2)c2cc(Cl)ccc2c(=O)n1Cc1cc(S(C)(=O)=O)n(CCC(C)(C)O)n1
**Result** 4.23

**Query** Write down logD measured for item CCC(=O)c1c(-c2ccccc2)c2cc(Cl)ccc2c(=O)n1Cc1cc(C(=O)NC2CC2)n(CC(F)F)n1
**Result** 4.66

* * *

- Assay Procedure: AUC in Wistar rat at 0.3 mg/kg, iv
- Assay type: ADME, organism-based
- Design: dose 0.3 mg/kg, route intravenous
- Conditions Used: plasma
Readout: AUC (ng·h/mL)
Your answer is read as ng·h/mL, so omit the unit and give the number.

**Query** Give the value of AUC reported for the following: CCC(=O)c1c(-c2ccccc2)c2cc(Cl)ccc2c(=O)n1Cc1cc(C(=O)NC2CC2)n(C)n1
**Result** 234

* * *

- Assay Procedure: Metabolic stability in rat microsomes at 1 uM
- Assay type: ADME, Microsome
- Conditions Used: read-out: Stability
Readout: microsomal CLint at 1 µM (µL/min/mg)
State the answer as a number, implicitly in µL/min/mg.

Below: 5 molecules and their reported microsomal CLint at 1 µM.
[
  {
    "Record Smiles": "CCC(=O)c1c(-c2ccccc2)c2cc(Cl)ccc2c(=O)n1Cc1cc(C(=O)NC)n[nH]1",
    "Recorded Measurement": 74
  },
  {
    "Record Smiles": "CCC(=O)c1c(-c2ccccc2)c2cc(Cl)ccc2c(=O)n1Cc1cc(S(C)(=O)=O)n(CC(C)=O)n1",
    "Recorded Measurement": 80
  },
  {
    "Record Smiles": "CCC(=O)c1c(-c2ccccc2)c2cc(Cl)ccc2c(=O)n1Cc1cc(C(N)=O)n(C)n1",
    "Recorded Measurement": 81
  },
  {
    "Record Smiles": "CCC(=O)c1c(-c2ccccc2)c2cc(Cl)ccc2c(=O)n1Cc1cc(C(=O)NC2CC2)n(C)n1",
    "Recorded Measurement": 89
  },
  {
    "Record Smiles": "CCC(=O)c1c(-c2ccccc2)c2cc(Cl)ccc2c(=O)n1Cc1cc(S(C)(=O)=O)n(CCC(C)(C)O)n1",
    "Recorded Measurement": 74
  }
]

**Query** Write down microsomal CLint at 1 µM measured for item CCC(=O)c1c(-c2ccccc2)c2cc(Cl)ccc2c(=O)n1Cc1cc(S(C)(=O)=O)n(CC(F)F)n1
**Result** 52

**Query** Entry CCNC(=O)n1cc(Cn2c(C(=O)CC)c(-c3ccccc3)c3cc(Cl)ccc3c2=O)cn1 needs its microsomal CLint at 1 µM filled in; supply it.
**Result** 60

**Query** Complete the entry with microsomal CLint at 1 µM for CCC(=O)c1c(-c2ccccc2)c2cc(Cl)ccc2c(=O)n1Cc1cc(C(=O)NC)n(C)n1
**Result** 177

**Query** Specify measured microsomal CLint at 1 µM for CCC(=O)c1c(-c2ccccc2)c2cc(Cl)ccc2c(=O)n1Cc1cc(C(=O)N(C)C)n(C)n1 .
**Result** 230

**Query** Please give the documented microsomal CLint at 1 µM of CCC(=O)c1c(-c2ccccc2)c2cc(Cl)ccc2c(=O)n1Cc1cc(C(N)=O)n(CC)n1
**Result** 110

* * *

- Assay Procedure: Metabolic stability in human microsomes at 1 uM
- Type: ADME, Microsome
- Conditions Used: read-out: Stability
Decision: microsomal CLint at 1 µM >= 40 µL/min/mg yields fulfilled, all other cases yield not fulfilled.

**Query** Assess whether reported microsomal CLint at 1 µM for CCC(=O)c1c(-c2ccccc2)c2cc(Cl)ccc2c(=O)n1Cc1cc(C(=O)NC)n[nH]1 sits at 40 µL/min/mg or higher.
**Result** not fulfilled

**Query** Identify whether the reported microsomal CLint at 1 µM of the following molecule is 40 µL/min/mg or greater: CCNC(=O)n1cc(Cn2c(C(=O)CC)c(-c3ccccc3)c3cc(Cl)ccc3c2=O)cn1
**Result** fulfilled

**Query** Check if microsomal CLint at 1 µM >= 40 µL/min/mg (inclusive). Item: CCC(=O)c1c(-c2ccccc2)c2cc(Cl)ccc2c(=O)n1Cc1cc(S(C)(=O)=O)n(CC(F)F)n1
**Result** not fulfilled

**Query** Please tell me: is the molecule CCC(=O)c1c(-c2ccccc2)c2cc(Cl)ccc2c(=O)n1Cc1cc(S(C)(=O)=O)n(CC(N)=O)n1 at or over 40 µL/min/mg in terms of microsomal CLint at 1 µM?
**Result** not fulfilled

**Query** API: above_or_equal(metric=microsomal CLint at 1 µM, cutoff=40 µL/min/mg) for item CCC(=O)c1c(-c2ccccc2)c2cc(Cl)ccc2c(=O)n1Cc1cc(C(N)=O)n(C)n1
**Result** not fulfilled

* * *

- Test System: Mitogen-activated protein kinase 8 (Rattus norvegicus)
- Sequence (P49185 whole entry): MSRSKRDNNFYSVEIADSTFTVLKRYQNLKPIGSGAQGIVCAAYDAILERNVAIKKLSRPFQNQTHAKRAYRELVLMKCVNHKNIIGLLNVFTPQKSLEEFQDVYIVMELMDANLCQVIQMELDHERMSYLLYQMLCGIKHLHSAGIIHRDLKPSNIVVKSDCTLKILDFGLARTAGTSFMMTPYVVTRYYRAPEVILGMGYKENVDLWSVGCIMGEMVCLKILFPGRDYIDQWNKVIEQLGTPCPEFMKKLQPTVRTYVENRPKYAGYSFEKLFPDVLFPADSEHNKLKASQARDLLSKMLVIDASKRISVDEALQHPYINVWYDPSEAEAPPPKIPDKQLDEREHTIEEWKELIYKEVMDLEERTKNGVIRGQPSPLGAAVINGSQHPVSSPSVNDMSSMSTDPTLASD
- Assay Procedure: Inhibition of JNK1 in rat H9c2 cells assessed as inhibition of anisomycin-induced cJun phosphorylation after 30 mins
Readout: pIC50
pIC50 (log units): -log10 of the concentration in mol/L.

[
  {
    "Record Smiles": "CCC(=O)c1c(-c2ccccc2)c2cc(Cl)ccc2c(=O)n1Cc1cc(C(=O)NC2CC2)n(CC(F)F)n1",
    "Test System": "Mitogen-activated protein kinase 8 (Rattus norvegicus)",
    "pIC50": 5.94
  },
  {
    "Record Smiles": "CCC(=O)c1c(-c2ccccc2)c2cc(Cl)ccc2c(=O)n1Cc1cc(C(=O)NC2CC2)n(C)n1",
    "Test System": "Mitogen-activated protein kinase 8 (Rattus norvegicus)",
    "pIC50": 6.14
  },
  {
    "Record Smiles": "CCC(=O)c1c(-c2ccccc2)c2cc(Cl)ccc2c(=O)n1Cc1cc(S(C)(=O)=O)n(CC(C)=O)n1",
    "Test System": "Mitogen-activated protein kinase 8 (Rattus norvegicus)",
    "pIC50": 6.14
  },
  {
    "Record Smiles": "CCC(=O)c1c(-c2ccccc2)c2cc(Cl)ccc2c(=O)n1Cc1cc(C(N)=O)n(C)n1",
    "Test System": "Mitogen-activated protein kinase 8 (Rattus norvegicus)",
    "pIC50": 5.66
  },
  {
    "Record Smiles": "CCC(=O)c1c(-c2ccccc2)c2cc(Cl)ccc2c(=O)n1Cc1cc(S(C)(=O)=O)n(CC(F)F)n1",
    "Test System": "Mitogen-activated protein kinase 8 (Rattus norvegicus)",
    "pIC50": 6.32
  },
  {
    "Record Smiles": "CCC(=O)c1c(-c2ccccc2)c2cc(Cl)ccc2c(=O)n1Cc1cc(C(N)=O)n(CC)n1",
    "Test System": "Mitogen-activated protein kinase 8 (Rattus norvegicus)",
    "pIC50": 6.17
  }
]

**Query** Tell me pIC50 of CCC(=O)c1c(-c2ccccc2)c2cc(Cl)ccc2c(=O)n1Cc1ccc(C(=O)O)cc1 when tested on Mitogen-activated protein kinase 8 (Rattus norvegicus).
**Result** 5.64

**Query** State, for Mitogen-activated protein kinase 8 (Rattus norvegicus), measured pIC50 of the compound listed here: CCC(=O)c1c(-c2ccccc2)c2cc(Cl)ccc2c(=O)n1Cc1cc(S(C)(=O)=O)n(CCC(C)(C)O)n1
**Result** 6.48

**Query** Give the observed pIC50 of COC(=O)c1c(-c2ccccc2)c2cc(Br)ccc2c(=O)n1Cc1ccc(S(C)(=O)=O)cc1 for Mitogen-activated protein kinase 8 (Rattus norvegicus).
**Result** 5.59

**Query** Specify pIC50 for CCC(=O)c1c(-c2ccccc2)c2cc(Cl)ccc2c(=O)n1Cc1cc(S(C)(=O)=O)n(CC(N)=O)n1 , system Mitogen-activated protein kinase 8 (Rattus norvegicus).
**Result** 5.98

**Query** System Mitogen-activated protein kinase 8 (Rattus norvegicus). Read-out pIC50. Item CCC(=O)c1c(-c2ccccc2)c2cc(Cl)ccc2c(=O)n1Cc1cc(C(=O)NC)n(C)n1 . Report value.
**Result** 6.59

Data provenance is ChEMBL document CHEMBL1144699.
